Target: human TRPV1 receptor (hTRPV1) (Homo sapiens (Human))
Sequence (Q8NER1 whole entry): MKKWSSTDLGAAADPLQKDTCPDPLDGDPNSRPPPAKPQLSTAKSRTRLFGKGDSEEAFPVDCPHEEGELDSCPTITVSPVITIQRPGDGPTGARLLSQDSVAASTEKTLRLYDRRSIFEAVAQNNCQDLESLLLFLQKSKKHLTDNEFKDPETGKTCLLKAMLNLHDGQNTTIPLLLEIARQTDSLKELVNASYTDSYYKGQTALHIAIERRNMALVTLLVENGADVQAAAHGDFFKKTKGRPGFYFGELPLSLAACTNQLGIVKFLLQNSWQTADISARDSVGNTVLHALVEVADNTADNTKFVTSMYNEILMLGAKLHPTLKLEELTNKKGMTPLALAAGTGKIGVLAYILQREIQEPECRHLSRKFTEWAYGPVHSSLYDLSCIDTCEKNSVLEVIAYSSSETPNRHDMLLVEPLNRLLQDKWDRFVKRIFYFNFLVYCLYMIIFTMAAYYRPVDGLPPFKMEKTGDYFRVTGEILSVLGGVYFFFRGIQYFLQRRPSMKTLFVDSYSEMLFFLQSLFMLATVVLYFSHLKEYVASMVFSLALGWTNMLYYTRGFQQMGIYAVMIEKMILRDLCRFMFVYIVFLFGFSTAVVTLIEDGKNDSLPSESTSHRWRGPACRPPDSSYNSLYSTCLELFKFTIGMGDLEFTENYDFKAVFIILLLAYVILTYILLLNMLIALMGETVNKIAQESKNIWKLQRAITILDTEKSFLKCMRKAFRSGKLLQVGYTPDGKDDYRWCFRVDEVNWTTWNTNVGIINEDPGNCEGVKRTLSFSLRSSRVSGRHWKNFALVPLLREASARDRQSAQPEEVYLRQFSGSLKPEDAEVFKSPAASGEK
Experiment: Capsaicin activation assay (FLIPR intracellular Ca2+)
Format: cell-based
Conditions: inhibition of capsaicin-induced intracellular Ca2+ increase; compounds added 3 minutes prior to capsaicin; read-out: hTRPV1 cap. IC50
measuredProperty: pIC50
Here pIC50 is given on a logarithmic scale as minus log10 of the concentration in mol/L.

Past entries and their recorded results:
>  <smilesRecord>
CC1(C)C[C@@H](NC(=O)NCc2ccc(NS(C)(=O)=O)c(F)c2)c2ccc(Cl)cc2O1

>  <pIC50>
6.22

$$$$
>  <smilesRecord>
CS(=O)(=O)Nc1ccc(CNC(=O)N[C@@H]2CC(CF)(CF)Oc3cc(F)ccc32)cc1F

>  <pIC50>
5.19

$$$$
>  <smilesRecord>
CC(C)(C)c1ccc2c(c1)CC[C@H]2NC(=O)NCc1ccc(NS(C)(=O)=O)c(F)c1

>  <pIC50>
6.98

$$$$
>  <smilesRecord>
CC1(C)C[C@@H](NC(=O)NCc2ccc(NS(C)(=O)=O)c(F)c2)c2ccc(C(F)(F)F)nc2O1

>  <pIC50>
4.48

$$$$
>  <smilesRecord>
CS(=O)(=O)Nc1ccc(CNC(=O)N[C@@H]2CC(CF)(CF)Oc3cc(OC(F)(F)F)ccc32)cc1F

>  <pIC50>
6.06

$$$$
>  <smilesRecord>
C[C@@]1(CF)C[C@@H](NC(=O)NCc2ccc(NS(C)(=O)=O)c(F)c2)c2ccc(C(F)(F)F)cc2O1

>  <pIC50>
6.59

$$$$
>  <smilesRecord>
CCC1(CC)C[C@@H](NC(=O)NCc2ccc(NS(C)(=O)=O)c(F)c2)c2ccc(Cl)c(Cl)c2O1

>  <pIC50>
6.48

$$$$
>  <smilesRecord>
CS(=O)(=O)Nc1ccc(CNC(=O)N[C@@H]2CC(CF)(CF)Oc3cc(C(F)(F)F)ccc32)cc1F

>  <pIC50>
7.27

$$$$

Entry `CS(=O)(=O)Nc1ccc(CNC(=O)N[C@H]2CC3(CCC3)Oc3ccc(F)cc32)cc1F` : reported pIC50 = ?
4.64

What do we get for `CS(=O)(=O)Nc1ccc(CNC(=O)N[C@@H]2CCOc3cc(C(F)(F)F)ccc32)cc1F` ?
6.04

What do we get for `CC1(C)C[C@@H](NC(=O)NCc2ccc(NS(C)(=O)=O)c(F)c2)c2cc(F)ccc2O1` ?
5.12

What do we get for `C[C@]1(C(F)(F)F)C[C@@H](NC(=O)NCc2ccc(NS(C)(=O)=O)c(F)c2)c2ccccc2O1` ?
6.23

What do we get for `CC1(C)C[C@@H](NC(=O)NCc2ccc(NS(C)(=O)=O)c(F)c2)c2ccc(F)c(F)c2O1` ?
5.94

What do we get for `CS(=O)(=O)Nc1ccc(CNC(=O)N[C@@H]2CC(CF)(CF)Oc3cc(Cl)ccc32)cc1F` ?
5.54

What do we get for `CCC1(CC)C[C@@H](NC(=O)NCc2ccc(NS(C)(=O)=O)c(F)c2)c2cccc(F)c2O1` ?
6.38

What do we get for `CS(=O)(=O)Nc1ccc(CNC(=O)N[C@@H]2CCc3cc(C(F)(F)F)ccc32)cc1F` ?
6.49

What do we get for `C[C@@]1(C(F)(F)F)C[C@@H](NC(=O)NCc2ccc(NS(C)(=O)=O)c(F)c2)c2ccccc2O1` ?
5.61

What do we get for `CCC1(CC)C[C@@H](NC(=O)NCc2ccc(NS(C)(=O)=O)c(F)c2)c2cc(F)ccc2O1` ?
5.67

What do we get for `CS(=O)(=O)Nc1ccc(CNC(=O)N[C@@H]2CC(CF)(CF)Oc3c(F)cccc32)cc1F` ?
4.53

What do we get for `CC1(C)C[C@@H](NC(=O)NCc2ccc(NS(C)(=O)=O)c(F)c2)c2ccccc2O1` ?
5.12
